# GFP response, % of DMSO annotations
assay: modulators of CIT2-GFP expression in yeast, confirmation, S. cerevisiae, GFP fusion, cherry picks, mother/daughter gates (AID 2274); settings: S. cerevisiae CIT2-GFP strain, flow cytometry, 3 h; at 10 µM; hits give high values
# output: bare number, implied unit %

Worked examples, 4 molecules total:
MOLECULE	GFP response, % of DMSO [%]
O=C(O)c1cccc(S(=O)(=O)N2Cc3ccccc3C2)c1	100
OCc1ccccc1SSc1ccccc1CO	103
CSC(SC)=C(C#N)C(=O)c1ccccc1	93
Cn1nnnc1N=N/C(=N/Nc1ccccc1)c1ccccc1	87.2

**Q:** Consider the molecule "O=C(/C=C/c1ccc(-c2ccccc2[N+](=O)[O-])o1)c1ccc(Br)cc1" and give its measured GFP response, % of DMSO.
**A:** 101

**Q:** Consider the molecule "CNC(=O)/C(C#N)=C/c1c(N2CCCCCC2)nc2ccccn2c1=O" and give its measured GFP response, % of DMSO.
**A:** 108

**Q:** Consider the molecule "CCCN1CCc2c(sc(NC(=S)NC(=O)c3ccccc3)c2C#N)C1" and give its measured GFP response, % of DMSO.
**A:** 106

**Q:** Consider the molecule "Cc1cc(NCCCn2ccnc2)n2ncc(-c3ccccc3)c2n1" and give its measured GFP response, % of DMSO.
**A:** 100

**Q:** Consider the molecule CCCc1[nH]nc2c1C(c1ccc(OC(=O)N3CCOCC3)cc1)C(C#N)=C(N)O2 (centres undefined) and give its measured GFP response, % of DMSO.
**A:** 101

**Q:** Consider the molecule Cc1cccc(NC(=S)NCC23C=CC(O2)C2C(=O)N(c4ccc(Cl)cc4)C(=O)C23)c1 (centres undefined) and give its measured GFP response, % of DMSO.
**A:** 104

**Q:** Consider the molecule "Cc1cc(N2CCC(C)CC2)n2ncc(-c3ccccc3)c2n1" and give its measured GFP response, % of DMSO.
**A:** 102

**Q:** Consider the molecule CC(C)(C)c1cc(C(c2cccnc2)N2CCN(CCO)CC2)cc(C(C)(C)C)c1O (centres undefined) and give its measured GFP response, % of DMSO.
**A:** 99.3

**Q:** Consider the molecule "O=S(=O)(c1ccc(Cl)cc1)c1snnc1-c1ccccc1" and give its measured GFP response, % of DMSO.
**A:** 95.9

**Q:** Consider the molecule COc1ccc(N2CCN(C(=O)c3ccc(OCC4CCCO4)cc3)CC2)cc1 (centres undefined) and give its measured GFP response, % of DMSO.
**A:** 100

**Q:** Consider the molecule "Cc1ccc(-c2nn(C(C)(C)C)c3ncnc(N)c23)cc1" and give its measured GFP response, % of DMSO.
**A:** 45.8

**Q:** Consider the molecule "Cc1ccn2c(NC3CCCCC3)c(-c3cccc(-c4cccc(Cl)c4)c3)nc2c1" and give its measured GFP response, % of DMSO.
**A:** 93.5

**Q:** Consider the molecule "O=C(c1ccccc1[N+](=O)[O-])n1cnc2ccccc21" and give its measured GFP response, % of DMSO.
**A:** 117

**Q:** Consider the molecule "CCNC(=O)/C(C#N)=C/c1c(N(Cc2ccccc2)Cc2ccccc2)nc2ccccn2c1=O" and give its measured GFP response, % of DMSO.
**A:** 105

**Q:** Consider the molecule "CCc1nnc(NC(=O)c2ccc(S(=O)(=O)N(CC(C)C)CC(C)C)cc2)o1" and give its measured GFP response, % of DMSO.
**A:** 102

**Q:** Consider the molecule "Cc1ccc(NC(=O)c2ccc([N+](=O)[O-])o2)cc1C" and give its measured GFP response, % of DMSO.
**A:** 100

**Q:** Consider the molecule "CC(C)(C)NC(=O)c1ccccc1-c1nc(-c2ccccc2Cl)no1" and give its measured GFP response, % of DMSO.
**A:** 93
